tested on: SN12C renal; test: NCI-60 one-dose screen, 48 h (100 = growth as untreated, 0 = no growth, -100 = all killed); settings: 10 µM unless noted
This is part of a sample that, as a whole, favours compounds with a hit. Of some 83,000 tested, about 20% had one in any assay. The source made the active and inactive calls. The calls were made as follows: active = growth percent below 10; inactive = the rest.
parameterMeasured: growth

Look up growth for this molecule: `NC1=CC(=O)C(=O)c2ccccc21` 84.2% (inactive)

Next:
Look up growth for this molecule: `O=C(Nc1ccc(F)cc1)Nc1ccc(CCO)cc1` 101% (inactive)

Follow-up item: CN1CCCCC1CCN1c2ccccc2Sc2ccc(Cl)cc21 (stereo unspecified) 71.8% (inactive)
